The reported measurements were obtained from PubChem BioAssay AID1159580.

Listed next: entries and their corresponding normalized growth.
experiment: chemical genetic growth profiling, strain panel (AID 1159580);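 further: tested at 20 µM; growth read once vehicle control cultures reached saturation at 30 °C; 1 = growth at the plate median or of vehicle wells; lower values mean less growth of the strain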; conditions: S. cerevisiae deletion strains, growth OD, locus YJR043C, strain POL32, stronger effect = lower value
The whole screen tested about 5,500 compounds, of which about 2,000 (36%) were called active. Another 18% or so got no clear call; they are omitted. This is one part of the list.
The answer should be written as a number, with no unit following it.

Completed entries (count: 2):
stdin: Consider the compound COc1cc2c(cc1OC)[C@@H]1C(=O)c3ccc4c(c3O[C@@H]1CO2)CC(C(C)C)O4 (stereo partly drawn) and give its recorded normalized growth.
stdout: 0.976

stdin: Name the recorded normalized growth of the compound listed here: CCN(CC)CCNC(=O)c1cc(Cl)c(N)cc1OC
stdout: 0.996

Now look at this one.
stdin: Read the entry CN1CCN(CC(=O)N2c3ccccc3C(=O)Nc3cccnc32)CC1 and write its reported normalized growth.
stdout: 1.01
